Origin of measurements: ChEMBL document CHEMBL4715912

Measured inhibition at 5 min, 10 µM of individual entries
# system.tested: hERG (KCNH2) (Homo sapiens, UniProt Q12809)
# Sequence (Q12809 whole entry): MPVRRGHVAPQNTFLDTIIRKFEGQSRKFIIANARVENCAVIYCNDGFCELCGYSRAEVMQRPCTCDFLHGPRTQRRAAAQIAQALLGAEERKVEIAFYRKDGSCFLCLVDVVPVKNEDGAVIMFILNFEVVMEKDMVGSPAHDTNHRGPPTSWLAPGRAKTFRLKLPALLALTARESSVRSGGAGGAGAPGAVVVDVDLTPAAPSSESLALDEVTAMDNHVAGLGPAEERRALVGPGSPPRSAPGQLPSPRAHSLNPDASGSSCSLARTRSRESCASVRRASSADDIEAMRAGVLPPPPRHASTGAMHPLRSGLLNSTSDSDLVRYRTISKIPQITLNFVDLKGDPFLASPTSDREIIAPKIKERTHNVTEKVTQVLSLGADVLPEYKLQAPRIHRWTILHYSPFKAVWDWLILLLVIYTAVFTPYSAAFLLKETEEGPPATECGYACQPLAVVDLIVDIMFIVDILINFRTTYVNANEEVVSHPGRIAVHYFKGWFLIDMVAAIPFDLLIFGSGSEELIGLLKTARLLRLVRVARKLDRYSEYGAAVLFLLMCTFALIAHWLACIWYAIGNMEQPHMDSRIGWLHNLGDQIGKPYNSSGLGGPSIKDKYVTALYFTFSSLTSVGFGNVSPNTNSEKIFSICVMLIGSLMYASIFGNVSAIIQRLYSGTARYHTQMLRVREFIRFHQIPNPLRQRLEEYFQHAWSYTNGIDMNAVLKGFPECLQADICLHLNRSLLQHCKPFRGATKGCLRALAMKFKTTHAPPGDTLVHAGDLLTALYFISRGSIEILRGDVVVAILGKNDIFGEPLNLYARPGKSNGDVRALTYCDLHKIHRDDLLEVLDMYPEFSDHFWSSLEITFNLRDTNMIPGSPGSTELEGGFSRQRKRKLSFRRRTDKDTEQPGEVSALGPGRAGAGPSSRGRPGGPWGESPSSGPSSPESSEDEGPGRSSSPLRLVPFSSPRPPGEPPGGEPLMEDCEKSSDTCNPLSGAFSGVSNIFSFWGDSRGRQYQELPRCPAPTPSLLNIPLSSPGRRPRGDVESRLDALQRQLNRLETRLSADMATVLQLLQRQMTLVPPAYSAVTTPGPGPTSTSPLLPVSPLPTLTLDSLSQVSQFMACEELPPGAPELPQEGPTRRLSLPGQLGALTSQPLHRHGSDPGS
# assay.notes: Inhibition of human ERG expressed in CHO cells at 10 uM incubated for 5 mins by patch-clamp assay relative to control
# Type: cell-based
# condition.parameters: CHO cells expressing human ERG
Note: a bare number is incomplete; add the unit.

Given item CC(C)OC(=O)N1CCC(Oc2cc(N3CCc4cc(S(C)(=O)=O)ccc43)ncn2)CC1 , the value recorded as its inhibition at 5 min, 10 µM is 84%

Given item CC(C)c1noc(N2CCC(Oc3cc(N4CCc5cc(S(C)(=O)=O)ccc54)ncn3)CC2)n1 , the value recorded as its inhibition at 5 min, 10 µM is 106%

###

# assay.notes: Total clearance in rat at 0.1 mg/kg, iv by LC/MS/MS analysis
# Format: ADME, organism-based
# condition.parameters: in vivo
quantity: clearance (mL/min/kg)
Number in mL/min/kg, nothing else.

# example entries with known answers
| compound | value |
| --- | --- |
| CC(C)c1noc(N2CCC(Oc3cc(N4CCc5cc(N6CCC[C@H](O)C6=O)ccc54)ncn3)CC2)n1 | 2.47 |
| CC(C)c1noc(N2CCC(Oc3cc(N4CCc5cc(S(C)(=O)=O)ccc54)ncn3)CC2)n1 | 3.83 |
| CC(C)c1noc(N2CCC(Oc3cc(N4CCc5cc(N6CCC[C@@H](O)C6=O)ccc54)ncn3)CC2)n1 | 6.25 |

Given item CCc1cnc(N2CCC(C(C)COC(=O)N3CCc4cc(S(C)(=O)=O)cc(F)c43)CC2)nc1 (centres undefined) , the value recorded as its clearance is 47.7

###

Measured logD of individual entries
# assay.notes: Partition coefficient, logD between 1-octanol and pH 7.4 aqueous buffer by chromatographic analysis
# Type: physicochemical
# condition.parameters: 1-octanol/pH 7.4 aqueous buffer
Lab note: write the figure by itself, no unit.

# example entries with known answers
| molecule | logD |
| --- | --- |
| CC(C)c1noc(N2CCC(Oc3cc(N4CCc5cc(N6CCNCC6=O)ccc54)ncn3)CC2)n1 | 2.7 |
| CC(C)c1noc(N2CCC(Oc3cc(N4CCc5cc(N6CCCC(O)C6=O)ccc54)ncn3)CC2)n1 (racemic) | 3.3 |
| CC(C)c1noc(N2CCC(Oc3cc(N4CCc5cc(N6CCCNS6(=O)=O)ccc54)ncn3)CC2)n1 | 3.2 |
| CC(C)c1noc(N2CCC(Oc3cc(N4CCc5cc(S(=O)(=O)CCO)ccc54)ncn3)CC2)n1 | 2.7 |

Next molecule, please.
Given item CC(C)c1noc(N2CCC(Oc3cc(N4CCc5cc(N6CCC(O)CC6=O)ccc54)ncn3)CC2)n1 (racemic) , the value recorded as its logD is 2.8

###

# system.tested: UniProt A0A1U8CD06
# Sequence (A0A1U8CD06 whole entry): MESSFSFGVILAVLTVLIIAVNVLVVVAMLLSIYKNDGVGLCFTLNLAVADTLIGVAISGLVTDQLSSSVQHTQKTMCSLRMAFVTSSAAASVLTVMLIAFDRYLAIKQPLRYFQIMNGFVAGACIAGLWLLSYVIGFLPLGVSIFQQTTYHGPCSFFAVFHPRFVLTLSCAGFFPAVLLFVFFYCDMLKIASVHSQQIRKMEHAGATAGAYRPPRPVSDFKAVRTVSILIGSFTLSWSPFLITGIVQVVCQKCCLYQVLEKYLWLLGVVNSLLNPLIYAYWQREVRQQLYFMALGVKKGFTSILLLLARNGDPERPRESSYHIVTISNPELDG
# assay.notes: Agonist activity at GPR119 in glucose-induced golden hamster HIT-T15 cells assessed as increase in insulin secretion after 2 hrs by A1phaLISA
quantity: EC50 (µM)
Number in µM, nothing else.

Given item CC(C)c1noc(N2CCC(Oc3cc(N4CCc5cc(N6CCC[C@H](O)C6=O)ccc54)ncn3)CC2)n1 , the value recorded as its EC50 is 0.025
